test: soluble on expression in E. coli; label from the status in PepcDB or PDB records
READOUT: soluble on expression in E. coli

MSYSPPQPPQRQYSSTLNVDCVDGVYRSQQQVSPLTKQVNHLAYEIPKNKYANNPWNYAPEFLKVFGDLRVHIGGKAVFDCVLLGSPRPRVCWLFNEDKLRFSDVIIEDTADVCRLTIPYVQMHHFGTFTVLCENEVGRATAQAELLPLYE: not soluble
MGSDKIHHHHHHEYKNVNEIIVEELEIPVPLGDPFILLHNGTYYAYGTHSDEGIEVYISDNLKTWKYKGLALNKKDSWADRWFWAPEVYEVNGKFYMYYSADEHICVAVADSPVGPFIQNKQEPMIVEEKCIDNSFFMDDDGTPYLSFVRFNDGNNVWIAELEKDLITLKKETMRPCIHVSQAWEEVWPRVNEGSYILKHNGIYYMTYSANSYESPFYGVGCATATDIMGEWAKYDENPLLQNPGGLVGVGHSAMFTDKEGKLRIVFHAHKDKSNIHPRAMYIGTVNFENVNGTDRMRISKEYITPKLLQ: not soluble

====

experiment: soluble on expression in E. coli; label from the status in PepcDB or PDB records
READOUT: soluble on expression in E. coli

MIQSGKIYIRGRTVVFMIIRNEQDLEGLRKIGRIVALAREEMKKEAKPGMTTKELDLIGKKVLDEHGAISAPEKEYDFPGVTCISVNEEVAHGIPGDRVLKEGDLVNVDVSAALDGYYADTGISFVLGEDEAKEKLCQAAVDAFWAAMKKVKAGSKQNQIGRAVSNFAHKNGYNVIQNLTGHGIGLSLHEAPNHILSYFDPMDNALLKDGLVIAVEPFISMKADHIIERGDDGWTFVTPDKSLVAQCEHTVVVTRGEPIILTEI: soluble
GPGSMAFGNASKGTDDYTPEEHLTAAVMEYKKLEAANQNSVEHMYNVLSSPFKIGSKPCEAIRGDALRCLSEIIGNFTAKSTSGTDGSTVMANSASIVSQELPPIHRCYESVLHYESCVLERTLSRHNSMVATFEARRLREADSAREAAAAGGDI: not soluble
MGSDKIHHHHHHMNRESMRPQFAPARSPSDVAMISRHIEAGVHRLPRAPHHRVMVHASAATRSYCNQVGRYFVRRAGDIDLVPAGEEGGFEAETAFDTVEIVLPPALMERVAAELGGRALVSRLDTRHLLRDQRIEHLARALQNDLDAGAPSGSLFADSIGAALAVRLLGVDDDIDIERTNRLSDTQLKRVLEHIEAALHEPLSIDRLARVAGASSSHLRTWFKVATGVTLHRYVLRRRVERARLLLERGDLSTSEVAELTGFAHQSHLAHWMRREIGQTPRDVRRARPPK: not soluble
MKIVIDLMGADHGVLPIIEGVSRALENKSFSVVLVGDKDKATPFISKELASKVEMIHTQDYIKMEEAATEAIKRKESSIYLGMDILKNGADALISAGHSGATMGLATLRLGRIKGVERPAICTLMPSVGKRPSVLLDAGANTDCKPEYLIDFALMGYEYAKSVLHYDSPKVGLLSNGEEDIKGNTLVKETHKMLKAYDFFYGNVEGSDIFKGVVDVVVCDGFMGNVVLKTTEGVASAIGSIFKDEIKSSFKSKMGALMLKNAFGILKQKTDYAEYGGAPLLGVNKSVIISHGKSNARAVECAIYQAISAVESQVCLRITQAFESLKSQSFESQSDQQDA: not soluble

I am curious: what soluble on expression in E. coli value has been reported for `GPGSMFHRTTPEEEVRKWTRSLRSEQRKIELQITKIRREEAKVKLSMKQAAKQNDQVVMRMLAKEMIRSRKAVNRMYASKAQMNSVSMQLQNQASQMKMSGSLKKSGEIMKEMNSLVKVKEVQQSMMAMSKEMVKAGLIDEIMNDTIDEALDDDISDTELEDEVNKVVMDVVQGQMDGARVGASRIPAQQQQQQETAEEEEDELMEKLNALRNS` ? soluble

// next record `LTGFQVGPMLQYQTGFHGIVLDFSLLYVERGIKLTNTSNRRSADIKTQSIDIPIELKWEMGMSNNFDLFLGVGPSFSFLVDKDNWGRKLAHIAVDVIDKDLPSMGWRSTEVGLNLGGGVKIVNHLMVSCYYNIGLTQSAKHNIGGNKHDAIDQIFDGDVFESKNRYWQLSLAYVF` not soluble

Recorded values, source the DeepSol protein solubility set.
